Source of measurements: ChEMBL document CHEMBL5058577

- Test system: HEK-293T
- Procedure details: Multiplex assay against HEK293T
- Assay type: toxicity, cell-based
- Cond: human, 12 h, 1 µM, compound concentration 1 uM, replicate 1
Assay endpoint: Population Fragmented Nuclei (%)
State the answer as a number, implicitly in %.

Here are 5 compounds together with their reported answers.
CN(C)C/C=C/C(=O)Nc1ccc(C(=O)N2CCCC(Nc3ncc(Cl)c(-c4c[nH]c5ccccc45)n3)C2)cc1 (stereo unspecified); 8
CN1CCC(C(=O)c2cccc(NC(=O)c3c(F)cc(F)cc3F)n2)CC1; 5
COCCCN1CCC(NC(=O)c2cc(Cl)c(N)c3c2OCC3)CC1 [PRUCALOPRIDE]; 10
CC(C)(C)c1ccc(CSc2cnn(C(C)(C)C)c(=O)c2Cl)cc1 [PYRIDABEN]; 7
CCCCCCNC(=O)Nc1ccc(S(=O)(=O)Nc2ccc(CCNC[C@H](O)COc3ccc(O)cc3)cc2)cc1 [L-755507]; 8

Pending compound:
Exercise: Can you share its Population Fragmented Nuclei (%)? I mean this compound: COCCn1c(C)c(C)s/c1=N\C(=O)C1C(C)(C)C1(C)C
Solution: 10
